System: MCF7
Experiment: Cytotoxicity against human MCF7 cells assessed as reduction in cell viability measured after 24 hrs by MTT assay
Details: MCF7, 24 h
# pIC50 listing for each entry below
Value format note: pIC50 is -log10 of concentration (mol/L); just state the number.

Look over these answered cases.
structure=COc1ccc(/C=C\c2cc(OC)c(OC)c(OC)c2)cc1O subject_of_test=MCF7 endpoint_result=8.05
structure=COc1cc(Nc2cc3c(cc2C(=O)NN)OCO3)cc(OC)c1OC subject_of_test=MCF7 endpoint_result=5.71
structure=COC(=O)c1cc2c(cc1Nc1ccc3c(c1)OCO3)OCCO2 subject_of_test=MCF7 endpoint_result=4.95
structure=COc1cc(Nc2cc3c(cc2C(=O)O)OCO3)cc(OC)c1OC subject_of_test=MCF7 endpoint_result=4.82
structure=COC(=O)c1cc2c(cc1Nc1cc(Br)c(OC)c(Br)c1)OCCO2 subject_of_test=MCF7 endpoint_result=5.47
structure=COc1c(Br)cc(Nc2cc3c(cc2C(=O)NN)OCCO3)cc1Br subject_of_test=MCF7 endpoint_result=6.36

Req: Answer with the recorded pIC50 of COC(=O)c1cc2c(cc1Nc1ccc(OC)c(OC)c1)OCCO2 only.
Resp: 4.95

Req: Answer with the recorded pIC50 of COc1c(F)cc(Nc2cc3c(cc2C(N)=O)OCCO3)cc1F only.
Resp: 4.91
